Each recorded value in this set is attributed to PubChem BioAssay (NCI).

Test system: OVCAR-8 ovarian
Assay: NCI-60 one-dose screen, 48 h (100 = growth as untreated, 0 = no growth, -100 = all killed)
Conditions: 10 µM
About 83,000 compounds went through this panel and 20% of them were active in at least one assay; those are over-represented in the sample as a whole. Calls of active or inactive are those of the source. The calls were made as follows: active = growth percent below 10; inactive = the rest.
MEASUREMENT KIND: growth

>  <MOLECULE>
Cc1ccc(/C(CS(=O)(=O)c2ccc(C)cc2)=N\O)cc1

>  <OBSERVED RESULT>
97.2% (inactive)

$$$$
>  <MOLECULE>
CCc1ccc(-c2nnc(COc3ccc(-c4nc5ccccc5[nH]4)cc3OC)o2)cc1

>  <OBSERVED RESULT>
40.9% (inactive)

$$$$
>  <MOLECULE>
C#Cc1ccc(-n2c(/C=C/c3cc(OC)c(OC)c(OC)c3)nc3ncccc3c2=O)cc1

>  <OBSERVED RESULT>
75.1% (inactive)

$$$$
>  <MOLECULE>
O=C(NNC(=O)c1ccncc1)Nc1ccc([N+](=O)[O-])cc1

>  <OBSERVED RESULT>
105% (inactive)

$$$$
>  <MOLECULE>
Cc1nc2scc(-c3ccc(Cl)cc3)n2c(=O)c1CCN1CCOCC1

>  <OBSERVED RESULT>
104% (inactive)

$$$$
>  <MOLECULE>
COC(=O)c1c(C)nc(Nc2nc3ccccc3s2)nc1-c1ccc(Cl)cc1Cl

>  <OBSERVED RESULT>
103% (inactive)

$$$$
>  <MOLECULE>
COc1ccc(-c2cc(=O)n(-c3nc4ccccc4[nH]3)[nH]2)cc1OC

>  <OBSERVED RESULT>
64.8% (inactive)

$$$$
>  <MOLECULE>
Cc1ccc(C)c(S(=O)(=O)NC2c3ccccc3Oc3ccccc32)c1

>  <OBSERVED RESULT>
90.6% (inactive)

$$$$
>  <MOLECULE>
Cc1ccc(C(=O)O)c(N)c1C

>  <OBSERVED RESULT>
100% (inactive)

$$$$
>  <MOLECULE>
CC(C)c1[nH]nc2c(NCc3ccc(-c4ccccn4)cc3)nc(SCCN)nc12

>  <OBSERVED RESULT>
10.9% (inactive)

$$$$
>  <MOLECULE>
Cc1ccc(NS(=O)(=O)c2ccccc2)c(NS(=O)(=O)c2ccccc2)c1

>  <OBSERVED RESULT>
105% (inactive)

$$$$
>  <MOLECULE>
COc1cc2nc(Sc3sc(N)nc3C)n(-c3ccc(Oc4ccccc4)cc3)c(=O)c2cc1OC

>  <OBSERVED RESULT>
85% (inactive)

$$$$
>  <MOLECULE>
CCC(CCNc1cc(OC)cc2cccnc12)CN1C(=O)c2ccccc2C1=O (stereo unspecified)

>  <OBSERVED RESULT>
109% (inactive)

$$$$
>  <MOLECULE>
C[C@@H]1C(=O)N(C[C@H](Cc2ccccc2)NC(=O)OCc2ccccc2)[C@]1(Cc1ccccc1)C(=O)OCc1ccccc1

>  <OBSERVED RESULT>
40.7% (inactive)

$$$$
>  <MOLECULE>
Cc1ccc(S(=O)(=O)Nc2cccc3[nH]c(C(F)(F)F)nc23)cc1

>  <OBSERVED RESULT>
31% (inactive)

$$$$
>  <MOLECULE>
COc1cc(C(=O)n2nc(N)c3c(C)cc(C)nc32)cc(OC)c1OC

>  <OBSERVED RESULT>
84.4% (inactive)

$$$$
>  <MOLECULE>
Cc1ncc([N+](=O)[O-])n1CCOc1ccc(C(=O)/C=C/c2ccc(C(F)(F)F)cc2)cc1

>  <OBSERVED RESULT>
51.8% (inactive)

$$$$
>  <MOLECULE>
O=C(Nc1cccc(C(F)(F)F)c1)C(Cl)Cl

>  <OBSERVED RESULT>
98.7% (inactive)

$$$$
>  <MOLECULE>
COc1cc(C2=Nc3c/c(=C\c4c(O)[nH]c5ccc(Cl)cc45)ccc3=N2)cc(OC)c1OC

>  <OBSERVED RESULT>
-71.4% (active)

$$$$
>  <MOLECULE>
COC(=O)CCCCCCCCC(C)c1ccc(C(C)=O)cc1 (stereo unspecified)

>  <OBSERVED RESULT>
104% (inactive)

$$$$
>  <MOLECULE>
Cc1nc2ccc(-n3c(-c4ccc(Cl)cc4)nc4ccccc4c3=O)cc2n1Cc1ccccc1

>  <OBSERVED RESULT>
93.4% (inactive)

$$$$
